# Tested on: Bacillus subtilis
# test description: cleaved RNA product abundance (RNA/gDNA barcode ratio) relative to median wild-type variant (ratio to wild type); higher = more accumulation of the downstream cleavage product
# condition info: experiment (reporter, strain, medium): exp 4a: truncated aprE reporter, strain BJT201 with 2% xylose (RNase J1 expressed); cleavage site: cggR-gapA (positions -7 to +36 mutated)
observable: cleaved RNA product abundance

ACAGACGAAGGAGCCGCAAAGAATTTATTAAGGGATGAATAGTCCCTCAATATAAATATCTCTCACTTATTTAAA	0.713
ACAGACGAAGGAGCCGCAATGAAGTTATTAAGGGATGAATAATCCCTCAATATGAATATCTCTCACTTATTTAAA	0.141
ACAGACGAAGGAGCCGCAAAGAAGTTATTAAGGGATGAATAATCCTTCAATATAAATAACTCTCACTTATTTAAA	0.935
ACAGACGAAGGAGCCGCAAAGAAGTTATTAAGGGATGAATAATCCCTTAATATAAACATCTCTCACTTATTTAAA	0.216
ACAGACGAAGGAGCCGCAAAGAAGCTATTAAGGGATGTATAATCCCTCAATATAAATATCTCTCACTTATTTAAA	0.576
ACAGACGAAGGAGCCGCAAAGAAGTTATTAACGGATGAAAAATCCCTCAATATAAATATCTCTCACTTATTTAAA	0.133
ACAGACGAAGGAGCCGCAAAGATGTTATTAAGGGATGAATAATCCCTAAATATAAATATCTCTCACTTATTTAAA	1.11
ACAGACGAAGGAGCCGCGAAGAAGTTAATAAGGGATGAATAATCCCTCAATATAAATATCTCTCACTTATTTAAA	0.31
ACAGACGAAGGAGCCGCAAAGAAGTTATTAAGGGATGAAAAATCCCTCAATAAAAATATCTCTCACTTATTTAAA	0.217
ACAGACGAAGGAGCCGCAAAGAAATTATTAAGCGATTAATAATCCCTCAATATAAATATCTCTCACTTATTTAAA	0.0984
ACAGACGAAGGAGCCGCAGAGAAGTTATCAAGGGATGAATAATCCCTCAATATAAATATCTCTCACTTATTTAAA	0.328
ACAGACGAAGGAGCCGCAAAGAAGTTATTAAGGGATCAATAATCCCTCAAAATAAATATCTCTCACTTATTTAAA	0.315
ACAGACGAAGGAGCCGCAAAGAAGTTATTTAAGGGATGAATAATCCCTCAATATAAATATCTCTCACTTATTTAA	0.315
ACAGACGAAGGAGCCGCAAAGAAGTTATTAAGGTACGAATAATCCCTCAATATAAATATCTCTCACTTATTTAAA	0.106
ACAGACGAAGGAGCCGCAAAGAATTTATTAAGGGATGAATAATCCCTCAATATAAATATCTCTCACTTATTAAAG	0.836

====

# System: Bacillus subtilis
# test description: cleaved RNA product abundance (RNA/gDNA barcode ratio) relative to median wild-type variant (ratio to wild type); higher = more accumulation of the downstream cleavage product
# condition info: experiment (reporter, strain, medium): exp 2b: truncated aprE reporter, strain BJT200; cleavage site: cggR-gapA (positions -7 to +36 mutated)
cleaved RNA product abundance reference
observable: cleaved RNA product abundance

ACAGACGAAGGAGCCGCAAAGAAGTTATTACGGGATGAAAAATCCCTCAATATAAATATCTCTCACTTATTTAAA	0.223
ACAGACGAAGGAGCCGCAAAGAAGTTATTAAGGGATGAATAATACCTCAAGATAAATATCTCTCACTTATTTAAA	0.102
ACAGACGAAGGAGCCGCAAAGAAGTTATTAAGGGATAAATAATCCCTCAATATAATTATCTCTCACTTATTTAAA	0.507
ACAGACGAAGGAGCCGCAAAGTAGTTATTAAGGGATGAATAATCCCACAATATAAATATCTCTCACTTATTTAAA	0.199
ACAGACGAAGGAGCCGCAAAGAAGTTATTAAGGGCAGAATAATCCCTCAATATAAATATCTCTCACTTATTTAAA	0.174
ACAGACGAAGGAGCCGCAAAGCAGTTATTAAGGGATGAATATTCCCTCAATATAAATATCTCTCACTTATTTAAA	0.832
ACAGACGAAGGAGCCGCAAAGGAGTTATTAAGGGAAGAATAATCCCTCAATATAAATATCTCTCACTTATTTAAA	0.495
ACAGACGAAGGAGCCGCAAAGAAGTTATTAAAGGCTGAATAATCCCTCAATATAAATATCTCTCACTTATTTAAA	0.0927
ACAGACGAAGGAGCCGCAAAGAAGTTATTAAGGTATGAATAATCCCTCAATGTAAATATCTCTCACTTATTTAAA	0.094
ACAGACGAAGGAGCCGCAAAGATGTTATTAAGGGATGAATAATCCCTCAATATAAATAACTCTCACTTATTTAAA	0.767
ACAGACGAAGGAGCCGCAAAGAAGTTATTAAGGGATGAATAATTCCTCAATTTAAATATCTCTCACTTATTTAAA	0.0889
ACAGACGAAGGAGCCGCAAAGAAGTTATTGAGGGATGAATAATCCCTCAATATAAATATCTCTCACTTATTTAAA	0.116
ACAGACGAAGGAGCCGCAAAGAAGTTATTAAGGGATTAATAATGCCTCAATATAAATATCTCTCACTTATTTAAA	0.14
ACAGACGAAGGAGCCGCAAAGAAATTATTAATGTATGAATAATCCCTCAATATAAATATCTCTCACTTATTTAAA	0.117
ACAGACGAAGGAGCCGCAAAGAAGTGATTAAGGGATGAATAATCCATCAATATAAATATCTCTCACTTATTTAAA	0.27
